Values were extracted from ChEMBL document CHEMBL2346522.

tested_on: Mitogen-activated protein kinase 10 (Homo sapiens) (UniProt P53779)
Sequence (P53779 whole entry): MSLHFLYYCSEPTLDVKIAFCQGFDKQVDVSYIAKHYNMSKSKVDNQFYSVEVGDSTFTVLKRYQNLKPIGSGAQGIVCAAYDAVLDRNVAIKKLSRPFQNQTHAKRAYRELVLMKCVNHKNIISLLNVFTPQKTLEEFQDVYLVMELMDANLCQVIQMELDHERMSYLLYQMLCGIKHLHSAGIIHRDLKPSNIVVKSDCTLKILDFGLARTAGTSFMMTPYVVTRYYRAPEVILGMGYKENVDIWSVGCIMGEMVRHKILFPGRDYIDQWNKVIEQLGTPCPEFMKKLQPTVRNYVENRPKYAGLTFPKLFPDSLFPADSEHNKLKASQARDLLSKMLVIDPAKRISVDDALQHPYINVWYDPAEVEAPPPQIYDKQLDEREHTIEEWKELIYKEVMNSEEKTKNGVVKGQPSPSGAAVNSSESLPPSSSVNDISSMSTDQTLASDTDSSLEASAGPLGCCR
test_name: Inhibition of human JNK3 using JNK3tide as substrate assessed as residual activity at 10 uM incubated for 10 mins prior to ATP addition measured after 20 mins by liquid scintillation counting analysis
readout_type: Activity (%)

- O=C(O)CCCCCN1C(=O)/C(=C/c2ccc(-c3ccc(Br)cc3)o2)SC1=S: 65
- O=C(O)CCCN1C(=O)/C(=C/c2ccc(-c3ccc(Br)cc3)o2)SC1=S: 92
- O=C(O)CCCN1C(=O)/C(=C/c2ccc(-c3ccccc3Cl)o2)SC1=S: 41

a: CC(C(=O)O)N1C(=O)/C(=C/c2ccc(-c3ccc(Cl)c(Cl)c3)o2)SC1=S (stereo not given)
b: O=C(O)CCN1C(=O)/C(=C/c2ccc(-c3ccccc3F)o2)SC1=S
Inquiry: Lab note: check whether a or b has the lower measured Activity. Kindly state the label of the option you pick.
Reply text: a

* * *

tested_on: Mitogen-activated protein kinase kinase kinase 5 (Homo sapiens, UniProt Q99683)
Sequence (Q99683 whole entry): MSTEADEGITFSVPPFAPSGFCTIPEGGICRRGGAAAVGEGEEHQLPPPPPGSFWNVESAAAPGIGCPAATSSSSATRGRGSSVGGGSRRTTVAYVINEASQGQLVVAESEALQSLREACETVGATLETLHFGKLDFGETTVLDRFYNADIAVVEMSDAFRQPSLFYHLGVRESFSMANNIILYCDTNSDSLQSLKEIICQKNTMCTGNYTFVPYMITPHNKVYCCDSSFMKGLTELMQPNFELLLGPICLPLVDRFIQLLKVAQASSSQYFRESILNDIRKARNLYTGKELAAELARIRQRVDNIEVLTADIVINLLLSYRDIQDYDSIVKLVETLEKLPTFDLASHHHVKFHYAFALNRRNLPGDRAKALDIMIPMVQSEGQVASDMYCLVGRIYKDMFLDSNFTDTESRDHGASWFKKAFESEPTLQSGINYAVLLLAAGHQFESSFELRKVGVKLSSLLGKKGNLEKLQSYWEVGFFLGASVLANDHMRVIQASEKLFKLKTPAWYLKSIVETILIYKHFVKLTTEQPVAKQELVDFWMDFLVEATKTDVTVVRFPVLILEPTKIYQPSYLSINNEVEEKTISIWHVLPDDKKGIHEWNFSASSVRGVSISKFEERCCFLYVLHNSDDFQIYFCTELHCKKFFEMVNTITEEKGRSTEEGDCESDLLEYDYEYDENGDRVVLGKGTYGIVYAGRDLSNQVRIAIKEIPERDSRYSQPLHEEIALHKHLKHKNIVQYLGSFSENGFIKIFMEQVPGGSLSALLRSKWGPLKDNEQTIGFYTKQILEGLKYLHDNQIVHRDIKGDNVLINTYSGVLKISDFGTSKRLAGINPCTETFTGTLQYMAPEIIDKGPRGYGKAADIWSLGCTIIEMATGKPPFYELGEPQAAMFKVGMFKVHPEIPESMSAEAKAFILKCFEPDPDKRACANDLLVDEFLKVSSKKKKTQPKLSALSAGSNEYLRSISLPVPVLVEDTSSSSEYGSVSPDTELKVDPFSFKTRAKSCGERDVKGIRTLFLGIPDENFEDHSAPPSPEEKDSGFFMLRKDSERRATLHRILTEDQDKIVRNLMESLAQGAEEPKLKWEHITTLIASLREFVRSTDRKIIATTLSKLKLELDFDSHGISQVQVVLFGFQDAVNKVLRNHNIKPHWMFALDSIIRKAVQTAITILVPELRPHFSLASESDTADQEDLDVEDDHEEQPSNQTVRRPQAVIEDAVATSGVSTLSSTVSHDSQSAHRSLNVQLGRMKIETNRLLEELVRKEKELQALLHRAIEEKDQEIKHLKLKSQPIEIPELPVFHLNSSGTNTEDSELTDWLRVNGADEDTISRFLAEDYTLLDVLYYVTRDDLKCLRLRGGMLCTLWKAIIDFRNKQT
test_name: Inhibition of human ASK1 using MBP as substrate incubated for 10 mins prior to ATP addition measured after 20 mins by liquid scintillation counting analysis
readout_type: IC50

* O=C(O)C(Cc1ccccc1)N1C(=O)/C(=C/c2ccncc2)SC1=S (stereo not drawn) | > 33000 nM
* O=C1NC(=S)S/C1=C\c1cccnc1 | > 33000 nM
* COC(=O)CCCN1C(=O)/C(=C/c2ccc(-c3ccc(Br)cc3)o2)SC1=S | > 33000 nM
* O=C1/C(=C/c2ccc(-c3ccc(Cl)c(Cl)c3)o2)SC(=S)N1c1ccc(F)cc1 | > 33000 nM
* O=C1NC(=S)S/C1=C\c1ccc(-c2ccccc2[N+](=O)[O-])o1 | > 33000 nM

Inquiry: Field request: IC50 | item: O=C1/C(=C/c2ccc(Cl)cc2Cl)SC(=S)N1Nc1ccccc1
Reply text: > 33000 nM

Inquiry: Field request: IC50 | item: O=C(O)CCCCCN1C(=O)/C(=C/c2ccc(-c3ccccc3Cl)o2)SC1=S
Reply text: 500 nM

Inquiry: Field request: IC50 | item: COC(=O)c1ccc(/C=C2\SC(=S)N(c3ccc(O)c(C(=O)O)c3)C2=O)cc1
Reply text: > 33000 nM

Inquiry: Field request: IC50 | item: O=C(O)c1ccc(N2C(=O)/C(=C/c3cccnc3)SC2=S)cc1
Reply text: > 33000 nM

Inquiry: Field request: IC50 | item: CC(C(=O)O)N1C(=O)/C(=C/c2ccc(-c3ccc(Cl)c(Cl)c3)o2)SC1=S (stereo not drawn)
Reply text: 650 nM

Inquiry: Field request: IC50 | item: O=C(O)CC(C(=O)O)N1C(=O)/C(=C/c2ccc(-c3ccc(Br)cc3)o2)SC1=S (stereo not drawn)
Reply text: 2800 nM

Inquiry: Field request: IC50 | item: O=C(O)CC(C(=O)O)N1C(=O)/C(=C/c2ccc(-c3c(Cl)cccc3Cl)o2)SC1=S (stereo not drawn)
Reply text: 1000 nM

Inquiry: Field request: IC50 | item: O=C(O)CCCCCN1C(=O)/C(=C/c2ccc(-c3cccc(C(F)(F)F)c3)o2)SC1=S
Reply text: 500 nM

* * *

tested_on: Mitogen-activated protein kinase kinase kinase 5 (Homo sapiens)
test_name: Inhibition of human ASK1 using MBP as substrate incubated for 10 mins prior to ATP addition measured after 20 mins by liquid scintillation counting analysis
readout_type: IC50 (nM)

Previously resolved entries follow.
- O=C(O)CCN1C(=O)/C(=C/c2ccc(-c3ccc([N+](=O)[O-])cc3)o2)SC1=S: 650
- O=C(O)CCCN1C(=O)/C(=C/c2ccc(-c3c(Cl)cccc3Cl)o2)SC1=S: 500
- CCC(C(=O)O)N1C(=O)/C(=C/c2ccc(-c3ccc(Br)cc3)o2)SC1=S (configuration not stated): 500

a: CSCCC(C(=O)O)N1C(=O)/C(=C/c2ccc(-c3ccc(Cl)c(Cl)c3)o2)SC1=S (configuration not stated)
b: CCCC(C(=O)O)N1C(=O)/C(=C/c2ccc(-c3ccc(Cl)c(Cl)c3)o2)SC1=S (configuration not stated)
Inquiry: Returns: the argument ( a or b ) having the larger IC50. Kindly state the label of the option you pick.
Reply text: b
(b: 3900 nM, a: 750 nM)

a: O=C(O)CCCN1C(=O)/C(=C/c2ccc(-c3ccccc3F)o2)SC1=S
b: O=C(O)CCCN1C(=O)/C(=C/c2ccc(-c3cc(Cl)ccc3Cl)o2)SC1=S
c: O=C(O)CCN1C(=O)/C(=C/c2ccc(-c3ccccc3Cl)o2)SC1=S
Inquiry: Ordering: ascending IC50. Your reply should list the labels following the order given in the request.
Reply text: b, c, a

* * *

tested_on: Mitogen-activated protein kinase kinase kinase 5 (Homo sapiens, UniProt Q99683)
test_name: Inhibition of human ASK1 using MBP as substrate incubated for 10 mins prior to ATP addition measured after 20 mins by liquid scintillation counting analysis
pIC50: −log10 of the molar value.
Reported pIC50 is given for each of the following compounds.

* COC(=O)CCCN1C(=O)/C(=C/c2ccc(-c3ccccc3F)o2)SC1=S | < 4.48

Inquiry: Field request: pIC50 | item: O=C1/C(=C/c2ccco2)SC(=S)N1c1cccnc1
Reply text: < 4.48

Inquiry: Field request: pIC50 | item: O=C(O)CN1C(=O)/C(=C/c2ccco2)SC1=S
Reply text: < 4.48

Inquiry: Field request: pIC50 | item: O=C(O)CN1C(=O)/C(=C/c2ccncc2)SC1=S
Reply text: < 4.48
